B1: TPR t1 (parent)
chain: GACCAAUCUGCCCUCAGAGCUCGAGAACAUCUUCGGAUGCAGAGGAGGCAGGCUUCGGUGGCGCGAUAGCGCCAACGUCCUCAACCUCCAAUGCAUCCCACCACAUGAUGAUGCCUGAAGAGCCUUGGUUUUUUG

Variants of: B1
protocol: polymerase ribozyme fitness, log enrichment relative to wild type (log ratio); higher = more active; in vitro selection for triplet polymerase activity
Label scheme for polymerase ribozyme fitness (log ratio): lower than -2 is N, -2 and above is Y.

mutant_designation="U106A G120C U130G" discrete_label=Y
mutant_designation="C4U A27U C72U" discrete_label=N
mutant_designation="G44U U59G G120A" discrete_label=Y
mutant_designation="C62G G117C" discrete_label=N
mutant_designation="A16U G69A C82G C97A C114U U133G" discrete_label=N
mutant_designation="G10A G47C C89U C124G" discrete_label=Y
mutant_designation="C76U U81A" discrete_label=Y
mutant_designation="C12A U81A U133A" discrete_label=Y
mutant_designation="C62U U133A" discrete_label=Y
mutant_designation="G51A C62U" discrete_label=N
mutant_designation="U32C A43U C123A" discrete_label=Y
mutant_designation="G19C G45A C53U" discrete_label=N
mutant_designation="U38G U54G C64U" discrete_label=N
mutant_designation="C13G U32C C85G" discrete_label=N
mutant_designation="A18C G63A U92G U112C G117A" discrete_label=N
mutant_designation="C12U G71C" discrete_label=Y
